- Target Or Test System: Monoacylglycerol lipase ABHD6 (Mus musculus)
- Method Notes: off-target ABHD6 activity blockade – biochemical, gel-based competitive ABPP, fluorescence, mouse, in vitro, selectivity assay for DAGLb inhibitor project, late-stage follow-up (AID 602319)
- Reported Conditions: Neuro-2A membrane proteome, HT-01 probe, at 0.01 µM, stronger effect = higher value
Answer rule not met if inhibition is under 70%, and rule met if it is 70% or more.

> print(dat)
                                   molecule           cat
1  O=C(N1CCCCC1c1ccccc1)n1cc(-c2ccc(-c3ccccc3)cc2)nn1 (stereo not drawn)  rule not met

Reported inhibition reaches at least 70% for O=C(N1CCCCC1CCc1ccccc1)n1cc(-c2ccc(-c3ccccc3)cc2)nn1 (stereo not drawn) ?
rule not met

Item: O=C(N1CCCCC1c1ccccc1)n1cc(-c2ccc(-c3ccc(CO)cc3)cc2)nn1 (stereo not drawn)
rule not met

Continue with COc1ccccc1-c1ccc(-c2cn(C(=O)N3CCCC(Cc4ccccc4)C3)nn2)cc1 (stereo not drawn)
rule met

====

- Target Or Test System: Monoacylglycerol lipase ABHD6 (Mus musculus) (UniProt Q8R2Y0)
- Sequence (Q8R2Y0 whole entry, looked up): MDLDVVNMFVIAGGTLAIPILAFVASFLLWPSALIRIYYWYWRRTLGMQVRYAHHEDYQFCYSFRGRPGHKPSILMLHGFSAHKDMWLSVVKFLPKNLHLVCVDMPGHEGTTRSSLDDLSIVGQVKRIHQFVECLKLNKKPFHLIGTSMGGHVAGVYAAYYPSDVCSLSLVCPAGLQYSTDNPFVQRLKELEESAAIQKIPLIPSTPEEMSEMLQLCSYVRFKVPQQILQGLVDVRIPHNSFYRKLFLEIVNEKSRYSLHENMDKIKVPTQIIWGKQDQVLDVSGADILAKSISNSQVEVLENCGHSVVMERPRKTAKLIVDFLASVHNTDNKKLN
- Method Notes: off-target ABHD6 activity blockade – biochemical, gel-based competitive ABPP, fluorescence, mouse, in vitro, selectivity assay for DAGLb inhibitor project, late-stage follow-up (AID 602319)
- Reported Conditions: Neuro-2A membrane proteome, HT-01 probe, at 0.01 µM
Activity calls are given as the source filed them.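 How the source made its calls: active means inhibition of at least 50% at 0.01 µM compound; inactive means the rest.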
Pick from yes (active), no (inactive) when you respond.

See these solved cases before continuing.
> print(dat)
                                   molecule  cat
1  O=C(c1ccc(-c2ccc(-c3cn(C(=O)N4CCCCC4Cc4ccccc4)nn3)cc2)cc1)N1CCCCC1 (centres undefined)  yes
2  O=C(N1CCCCC1c1ccccc1)n1cc(C(O)(c2ccccc2)c2ccccc2)nn1 (centres undefined)   no
3  O=C(N1CCCCC1c1ccccc1)n1cc(-c2ccc(-c3ccccc3CO)cc2)nn1 (centres undefined)  yes

For this molecule, state the assay outcome: COc1ccc(-c2ccc(-c3cn(C(=O)N4CCCCC4c4ccccc4)nn3)cc2)cc1 (centres undefined)
no

Could you do the same for NC(=O)c1ccc(-c2ccc(-c3cn(C(=O)N4CCCCC4c4ccccc4)nn3)cc2)cc1 (centres undefined) , please?
no

Another molecule: `COc1ccccc1-c1ccc(-c2cn(C(=O)N3CCC(Cc4ccccc4)CC3)nn2)cc1`
yes

Next molecule: O=C(O)c1ccc(-c2ccc(-c3cn(C(=O)N4CCCCC4CCc4ccccc4)nn3)cc2)cc1 (centres undefined)
no

Request: O=C(O)c1cccc(-c2ccc(-c3cn(C(=O)N4CCCCC4c4ccccc4)nn3)cc2)c1 (centres undefined)
yes

Also O=C(c1ccc(-c2ccc(-c3cn(C(=O)N4CCCCC4c4ccccc4)nn3)cc2)cc1)N1CCCCC1 (centres undefined) ?
yes

====

- Target Or Test System: Monoacylglycerol lipase ABHD6 (Mus musculus)
- Method Notes: off-target ABHD6 activity blockade – biochemical, gel-based competitive ABPP, fluorescence, mouse, in vitro, selectivity assay for DAGLb inhibitor project, late-stage follow-up (AID 602319)
- Reported Conditions: Neuro-2A membrane proteome, HT-01 probe, ABHD6 inhibition, at 0.001 µM, stronger effect = higher value
Recorded Endpoint: inhibition (%)
Just the number in %, nothing appended.

Recorded inhibition of COc1ccc(-c2ccc(-c3cn(C(=O)N4CCCCC4c4ccccc4)nn3)cc2)cc1 (configuration not stated) , please.
8

Here is the next compound: O=C(N1CCCCC1CCc1ccccc1)n1cc(-c2ccc(-c3ccccc3)cc2)nn1 (configuration not stated)
21

What about this compound? O=C(O)c1cccc(-c2ccc(-c3cn(C(=O)N4CCCCC4c4ccccc4)nn3)cc2)c1 (configuration not stated)
36

Try this compound too: COc1ccccc1-c1ccc(-c2cn(C(=O)N3CCCCC3c3ccccc3)nn2)cc1 (configuration not stated)
32
